Cited source for all entries: patent US20190359687A1

Below is a list of entries, each paired with its recorded koff value.
# TESTED_TARGET: T1, human glycophorin A on human red blood cells or red blood cell membranes (human, UniProt P02724 20-150)
# T1 construct: whole, on cells; also called hRBC; human RBC membranes
# T1 sequence (looked up): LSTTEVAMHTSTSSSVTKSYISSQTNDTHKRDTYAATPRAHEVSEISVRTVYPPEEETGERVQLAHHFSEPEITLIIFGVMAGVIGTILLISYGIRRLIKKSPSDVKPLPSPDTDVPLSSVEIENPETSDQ
# ASSAY: SPR (Biacore), Fab on human RBC membranes; * not accurate, instrument limit
State just the number; it will be interpreted in s⁻¹.

TPP-7797, affinity matured 6C12 Fab (Fab, V domains shown, Tested as Fab) VH: EVQLVQSGAEVKKPGASVKVSCKASGYTFTTYTIHWVRQAPGQGLEWMGYINPSSGYTRYNPKFKGRVTMTRDKSTSTAYMELRSLRSDDTAVYYCWTGRRDYWGQGTTVTVSS VL: DIQLTQSPSFLSASVGDRVTITCRASSSVRYIYWFQQKPGKAPKLLIYATSFRQSGVPSRFSGSGSGTEYTLTISSLQPEDFATYYCHQRNSFPYTFGQGTKLEIK : 1.64e-05

Switching to the query record.
Data request: Provide only the value of recorded koff for TPP-7783, affinity matured 6C12 Fab (Fab, V domains shown, Tested as Fab) VH: EVQLVQSGAEVKKPGASVKVSCKASGYTFTTYAIHWVRQAPGQGLEWMGYINPSSGYTRYNPKFKHRVTMTRDKSTSTAYMELRSLRSDDTAVYYCWTGTRDYWGQGTTVTVSS VL: DIQLTQSPSFLSASVGDRVTITCRASSSVRYIYWFQQKPGKAPKLLIYATSFRRSGVPSRFSGSGSGTEYTLTISSLQPEDFATYYCHQRNSFPYTFGQGTKLEIK
Data returned: 2.42e-07
